# TARGET_DESC: C3a receptor (C3aR) (Homo sapiens, UniProt Q16581)
# Construct: peripheral blood mononuclear cells were isolated from buffy coat (obtained from Australian Red Cross Blood Service, Kelvin Grove); endogenous in cells; host or cells: primary human monocyte-derived macrophages (HMDM) differentiated from CD14+ monocytes of donor buffy coat
# Sequence (Q16581 whole entry): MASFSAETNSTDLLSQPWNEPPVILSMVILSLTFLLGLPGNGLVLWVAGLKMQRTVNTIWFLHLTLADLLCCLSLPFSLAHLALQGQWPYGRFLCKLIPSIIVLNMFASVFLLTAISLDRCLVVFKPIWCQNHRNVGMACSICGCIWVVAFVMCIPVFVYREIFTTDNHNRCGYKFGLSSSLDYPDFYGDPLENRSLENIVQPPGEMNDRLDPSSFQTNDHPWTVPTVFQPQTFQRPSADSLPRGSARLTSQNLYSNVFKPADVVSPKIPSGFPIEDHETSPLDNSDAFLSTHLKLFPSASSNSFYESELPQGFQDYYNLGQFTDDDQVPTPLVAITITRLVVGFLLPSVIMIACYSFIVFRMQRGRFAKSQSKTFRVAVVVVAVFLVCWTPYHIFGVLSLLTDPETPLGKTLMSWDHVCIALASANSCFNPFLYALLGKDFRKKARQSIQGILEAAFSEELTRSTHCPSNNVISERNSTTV
# ASSAY_REMARKS: Competitive binding with [^125I]-C3a in HMDM
# SETUP_CONDITIONS: Table 11; [^125I]-C3a, HMDM; read-out: Receptor Binding Affinity IC50

# COMPOUND, IC50
rows = [
    ("NC(N)=NCCC[C@H](NC(=O)COCC(c1ccccc1)c1ccccc1)C(=O)O [SB290157, reference compound]", "38 nM"),
    ("CC(C)C[C@H](NC(=O)OC(C)(C)C)c1nc(C(=O)NC(CCCNC(=N)N)C(=O)O)co1 (stereo partly drawn) [Compound 1, Boc-leucine oxazole-arginine-OH]", "20 nM"),
    ("CC[C@H](C)[C@H](NC(=O)OC(C)(C)C)c1nc(C(=O)N[C@@H](CCCNC(=N)N)C(=O)O)c(C)o1 [Compound 25]", "15 nM"),
]
